# melting point per record follows

Could you tell me which melting point is on file for "Cc1nc(NC(=O)c2cnn3c(C(F)(F)F)cc(-c4ccc(Cl)c(Cl)c4)nc23)sc1S(=O)(=O)NC(C)(C)CO" ?
265 °C

* * *

Assay endpoint: melting point

// worked examples, melting point included
CC(C)c1cccc2c1OC(C(F)(F)F)C(C(=O)O)=C2 (stereo not given) | 210 to 212 °C
COc1ccc(C=CC(=O)Oc2cc3c(cc2OC)CC2c4cc(OC)c(OC)cc4CCN2C3)cc1OC (stereo not given) | 224 to 225 °C
CC(C)c1nc(-c2ccc(-c3cnc4[nH]c(=O)n(CC5CCOCC5)c4n3)cc2)n[nH]1 | 305 to 308 °C
CCCCNC(=O)NS(=O)(=O)c1cccc2c1nnn2C | 170 to 173 °C
Cc1ccccc1OCC1COC(Cn2ccnc2)(c2ccc(Cl)cc2Cl)O1 (stereo not given) | 138 °C

Attention now shifts to the item below.
Could you tell me which melting point is on file for "CCOC(=O)c1ccc(-c2n[nH]c3ccccc23)cc1" ?
133 to 135 °C

* * *

# melting point per record follows

CCCCNC(=O)NS(=O)(=O)c1cc(Cl)ccc1C(=O)OC(C)C | 129 °C
Cc1ccc2c([nH]c3c(C(=O)N4CCOCC4)cccc32)c1C | 183 °C
CCCc1cc(C#N)sc1-c1ccc2c(c1)C(C)(C)OC(=O)N2 | 160 to 162 °C
COC(=O)C=CC1C(C(=O)OC(C)(C)C)C1(C)C (configuration not stated) | 67 °C
CCCCc1nc2c(N)nc(C)c(C)c2n1CCOc1ccccc1 | 130 to 132 °C

Could you tell me which melting point is on file for "O=C(NC1CCOCC1)c1ccc(-c2cc(-c3c(-c4cccc(Cl)c4)nc4ccccn34)ccn2)cc1" ?
234 °C

Could you tell me which melting point is on file for "C#CCNC(=O)c1c(I)cccc1[Si](C)(C)C" ?
109 to 111 °C

Could you tell me which melting point is on file for "CCc1nc2cnc3ccccc3c2n1CC(C)C" ?
72 to 73.5 °C

* * *

Assay endpoint: melting point (°C)

// worked examples, melting point included
COc1ccc(S(=O)(=O)N(CCNS(C)(=O)=O)c2ccc(Cl)cc2Cc2c(F)cccc2F)cc1OC | 133
Cc1cc(-c2nc3cc(F)cc(N4CCCC4)c3c(=O)[nH]2)cc(C)c1OCCN1CCCC1 | 207

I: CCOc1ccc2c(S(=O)(=O)c3ccc(OCc4ccccc4)cc3)c(C(C)C)cn2c1
II: CNCc1cc(OC)c(-c2ccc(C[C@H](NC(=O)c3c(Cl)cccc3Cl)C(=O)O)cc2)c(OC)c1
Dear colleague, could you let me know whether I or II has the lower recorded melting point? Thanks. Answer by quoting the chosen item's label.
I
(I: 153 °C, II: 274 °C)

* * *

Assay endpoint: melting point

O=C1CN(c2ccccc2)C(=O)N1CCBr | 146 to 147 °C
CC12CCC3C(CC=C4CC(O)CCC43C)C1=CCC2=O (stereo unspecified) | 161 to 164 °C
O=C1CSC(C(=O)O)Cc2cc3c(cc21)OCCO3 (stereo unspecified) | 208 to 209 °C
O=[N+]([O-])c1ccc2c(c1)S(=O)(=O)c1cc([N+](=O)[O-])ccc1-2 | 282 to 287 °C
CCCCCN1C(=O)C2(COc3cc4c(cc32)OCO4)c2c(C#N)cccc21 (stereo unspecified) | 128 to 129 °C

Could you tell me which melting point is on file for "C=Cc1cnc(C)c(OC(=O)OCC)c1CSC(=O)OCC" ?
142 to 145 °C

Could you tell me which melting point is on file for "CCOC(=O)c1nc(/C=C/c2ccc([N+](=O)[O-])o2)no1" ?
138 to 139 °C

Value source: a melting point compilation (Tetko et al.; mined from patent text by program, amines drawn as free bases though some values may be those of a salt)
